System: PC-3 prostate
Experiment: NCI tumour cell line growth inhibition, 48 h
Readings of TGI for the listed compounds

Solved cases below.
>  <Smiles Structure>
Nc1nn2cc(-c3ccccc3)[n+](CC(=O)c3ccccc3)c2s1

>  <TGI>
> 100 µM

$$$$
>  <Smiles Structure>
CCN(CC)CCn1nc2c3c(cccc3c1=O)-c1ccccc1-2

>  <TGI>
23.6 µM

$$$$
>  <Smiles Structure>
COC(=O)C1=C(C)NC(C)=C(C(=O)OC)C1c1ccccc1[N+](=O)[O-]

>  <TGI>
> 100 µM

$$$$
>  <Smiles Structure>
Cn1c(-c2cccs2)cc(-c2ccsc2)c1-c1ccsc1

>  <TGI>
> 100 µM

$$$$

Please examine the following record next.
Fill in the blank: the reported TGI of CO[C@H]1/C=C/C=C/C=C/C[C@H](OC(=O)[C@@H](C)NC(=O)C2CCCCC2)[C@H](C)[C@@H](O)/C(C)=C\CCC2=CC(=O)C=C(NC(=O)C1)C2=O is ____. 0.896 µM
